Reported values: MIC for Helicobacter pylori ATCC 43579, one per item.

Examples with their reported MIC follow.
Response field MIC (Helicobacter pylori ATCC 43579) for item CC(C)CN(C)c1ccccc1C[S+]([O-])c1nc2ccccc2[nH]1 (stereo not shown) : 25 µg/mL

Response field MIC (Helicobacter pylori ATCC 43579) for item "CN/C(=N/CCSCc1nc[nH]c1C)NC#N" : 800 µg/mL

Response field MIC (Helicobacter pylori ATCC 43579) for item COc1ccc2[nH]c([S+]([O-])Cc3ncc(C)c(OC)c3C)nc2c1 (stereo not shown) : 12.5 µg/mL

Then this compound:
Response field MIC (Helicobacter pylori ATCC 43579) for item "NC(N)=Nc1nc(CSCCC(N)=NS(N)(=O)=O)cs1" : 800 µg/mL
